We begin with a simple list: items and their reported log10 of DC50.
- Target Desc: IKZF1 ZNF2_ZNF3 Q1F degron-tagged CD19 CAR (Homo sapiens, UniProt Q13422, Q146F)
- Construct: ZNF2_ZNF3 Q1F degron (GERPFFCNQCGASFTQKGNLLRHIKLHSGEKPFKCHLCNYACRRRDALTGHLRTHS); fused on or other part: anti-CD19 scFv, CD28 transmembrane domain, 4-1BB costimulatory domain, CD3 zeta signaling domain (the CAR that carries the degron), and Nluc
- Sequence (Q13422 whole entry Q146F, the tested form may be a part): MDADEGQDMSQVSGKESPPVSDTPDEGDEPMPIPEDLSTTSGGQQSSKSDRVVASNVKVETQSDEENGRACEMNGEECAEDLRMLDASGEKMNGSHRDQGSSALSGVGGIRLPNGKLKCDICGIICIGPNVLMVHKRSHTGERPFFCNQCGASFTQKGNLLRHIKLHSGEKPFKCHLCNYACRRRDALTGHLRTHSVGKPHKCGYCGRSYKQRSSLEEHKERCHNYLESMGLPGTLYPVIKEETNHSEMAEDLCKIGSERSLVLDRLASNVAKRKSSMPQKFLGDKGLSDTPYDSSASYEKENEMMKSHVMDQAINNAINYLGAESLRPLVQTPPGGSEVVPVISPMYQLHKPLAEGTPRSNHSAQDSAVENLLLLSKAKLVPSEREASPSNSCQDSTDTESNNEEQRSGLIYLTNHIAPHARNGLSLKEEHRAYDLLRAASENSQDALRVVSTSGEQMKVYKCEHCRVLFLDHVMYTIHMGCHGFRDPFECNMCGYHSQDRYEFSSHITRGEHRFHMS
- Test Method Notes: Degradation of Q1F degron-tagged CD19 CAR in Jurkat cells (flow cytometry of CAR levels)
- Assay type: cell-based
- Measurement Parameters: Jurkat cells expressing CD19 CAR tagged with IKZF1 ZNF2_ZNF3 Q1F; 18 hours at 37° C.; CAR levels normalized to untreated cells; read-out: Q1F Jurkat IC50
Note: values are log10 of DC50 expressed in nM.

Consider the following illustrative entries.
[
  {
    "Compound": "Cn1nccc1CN1CCC(c2c(F)cc3c(c2F)CN(C2CCC(=O)NC2=O)C3=O)CC1 (stereo not shown) [Compound 102]",
    "Observed Result": -0.55
  },
  {
    "Compound": "COc1ccc(-n2cccn2)c(CN2CCC(O)(c3c(F)cc4c(c3F)CN(C3CCC(=O)NC3=O)C4=O)CC2)c1 (stereo not shown) [Compound 23]",
    "Observed Result": 2.45
  },
  {
    "Compound": "O=C1CCC(N2Cc3c(cc(F)c(CNCc4ccc(C(F)F)cc4)c3F)C2=O)C(=O)N1 (stereo not shown) [Compound 79]",
    "Observed Result": 2.21
  },
  {
    "Compound": "O=C1CCC(N2Cc3c(cc(F)c(C4CCN(Cc5ccc(C(F)F)cc5)CC4)c3F)C2=O)C(=O)N1 (stereo not shown) [Compound 51]",
    "Observed Result": -1.01
  },
  {
    "Compound": "Cc1ccc(CN2CCC(O)(c3c(F)cc4c(c3F)CN(C3CCC(=O)NC3=O)C4=O)CC2)cc1F (stereo not shown) [Compound 28]",
    "Observed Result": 0.68
  },
  {
    "Compound": "CC(C)CN1CCC(c2c(F)cc3c(c2F)CN(C2CCC(=O)NC2=O)C3=O)CC1 (stereo not shown) [Compound 95]",
    "Observed Result": 1.02
  }
]

# query: log10 of DC50 of entry O=C1CCC(N2Cc3c(cc(F)c(C4(O)CCN(Cc5ccccc5C(F)(F)F)CC4)c3F)C2=O)C(=O)N1 (stereo not shown) [Compound 32]
0.98

====

- Target Desc: IKZF1 ZNF2_ZNF3 Q1F degron-tagged CD19 CAR (Homo sapiens, UniProt Q13422, Q146F)
- Construct: ZNF2_ZNF3 Q1F degron (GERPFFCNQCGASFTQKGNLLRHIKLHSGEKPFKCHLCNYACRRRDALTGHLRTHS); fused on or other part: anti-CD19 scFv, CD28 transmembrane domain, 4-1BB costimulatory domain, CD3 zeta signaling domain (the CAR that carries the degron), and Nluc
- Test Method Notes: Degradation of Q1F degron-tagged CD19 CAR in Jurkat cells (flow cytometry of CAR levels)
- Assay type: cell-based
- Measurement Parameters: Jurkat cells expressing CD19 CAR tagged with IKZF1 ZNF2_ZNF3 Q1F; 18 hours at 37° C.; CAR levels normalized to untreated cells; read-out: Q1F Jurkat IC50
# strict inequality: DC50 < 20 nM yields satisfied, everything else yields not satisfied

// known answers, use as guide
[
  {
    "Compound": "Cc1cc(CN2CCC(c3c(F)cc4c(c3F)CN(C3CCC(=O)NC3=O)C4=O)CC2)on1 (stereo not drawn) [Compound 4]",
    "Group Label": "not satisfied"
  },
  {
    "Compound": "O=C1CCC(N2Cc3cc(C4CCN(Cc5cccc6ncsc56)CC4)c(F)cc3C2=O)C(=O)N1 (stereo not drawn) [Compound 91]",
    "Group Label": "satisfied"
  },
  {
    "Compound": "CN(CCN1CCC(O)(c2c(F)cc3c(c2F)CN(C2CCC(=O)NC2=O)C3=O)CC1)S(=O)(=O)c1ccccc1 (stereo not drawn) [Compound 40]",
    "Group Label": "not satisfied"
  },
  {
    "Compound": "O=C1CCC(N2Cc3c(cc(F)c(C(=O)N4CCc5cc(F)c(F)cc5C4)c3F)C2=O)C(=O)N1 (stereo not drawn) [Compound 72]",
    "Group Label": "not satisfied"
  },
  {
    "Compound": "COCCOCCN1CCC(c2c(F)cc3c(c2F)CN(C2CCC(=O)NC2=O)C3=O)CC1 (stereo not drawn) [Compound 100]",
    "Group Label": "not satisfied"
  }
]

Does the reported DC50 of O=C1CCC(N2Cc3c(cc(F)c(C4CCN(Cc5ccncc5)CC4)c3F)C2=O)C(=O)N1 (stereo not drawn) [Compound 117] stay below 20 nM?
satisfied

Does the reported DC50 of CC(=O)Nc1ccc(CN2CCC(c3c(F)cc4c(c3F)CN(C3CCC(=O)NC3=O)C4=O)CC2)cc1 (stereo not drawn) [Compound 101] stay below 20 nM?
satisfied
